Reference for the values: ChEMBL document CHEMBL5303304

Tested on: Fibroblast
METHOD_DESCRIPTION: Incucyte cell viability with human fibroblast; note: unitless GR value; below 1 slowed growth and below 0 cell loss
Format: toxicity, cell-based
EXPERIMENTAL_PARAMETERS: 18 h, 10 µM, compound concentration 10 uM, replicate number 2
Numbered stars: 1 amine (or outer) side, 2 acyl side, 3 side chain; on linkers, the order of the positions; unused ones are H or OH. Bridge positions count the residues as written; N and C are the ends. Square brackets hold non-standard residues; d marks the D form. Peptide text beside a SMILES is read from it. I, II: the chains in the order shown. Hexamethylenediamine = C(CCCN[*:2])CCN[*:1]; Dip = N[C@H](C(=O)O)C(c1ccccc1)c1ccccc1; Chg = N[C@H](C(=O)O)C1CCCCC1; NMeA = CN[C@@H](C)C(=O)O
Entry flag: 1 if Growth Rate reaches 0.8; -1 if it does not.

>  <COMPOUND>
COc1ccc(CC(=O)NCc2ccccc2-c2ccccc2C(=O)NCc2ccc(F)cc2F)cc1

>  <TARGET_SYSTEM>
Fibroblast

>  <QUALITATIVE_LABEL>
1

$$$$
>  <COMPOUND>
O=c1cccc2n1C[C@@H]1CNC[C@H]2C1

>  <TARGET_SYSTEM>
Fibroblast

>  <QUALITATIVE_LABEL>
1

$$$$
>  <COMPOUND>
CC(=O)O.NCCCc1c(C(=O)O)[nH]c2ccc(C(=O)Nc3ccccc3)cc12

>  <TARGET_SYSTEM>
Fibroblast

>  <QUALITATIVE_LABEL>
-1

$$$$
>  <COMPOUND>
COCCNC1CCC(Nc2cc(-c3csc(NCC4(C#N)CCOCC4)n3)c(Cl)cn2)CC1 (stereo not given)

>  <TARGET_SYSTEM>
Fibroblast

>  <QUALITATIVE_LABEL>
-1

$$$$
>  <COMPOUND>
CN(C)C(=O)Cn1cc(-c2ccc(-c3nnc4ccccn34)cc2)cn1

>  <TARGET_SYSTEM>
Fibroblast

>  <QUALITATIVE_LABEL>
1

$$$$
>  <COMPOUND>
Fc1ccc(-c2c3cccc(C(F)(F)F)c3nn2Cc2ccc(F)cc2Cl)cc1

>  <TARGET_SYSTEM>
Fibroblast

>  <QUALITATIVE_LABEL>
-1

$$$$
>  <COMPOUND>
CN[C@@H](C)C(=O)N[C@H](C(=O)N1CCC[C@H]1C(=O)N[C@H](C(=O)NCCCCCCNC(=O)[C@@H](NC(=O)[C@@H]1CCCN1C(=O)[C@@H](NC(=O)[C@H](C)NC)C1CCCCC1)C(c1ccccc1)c1ccccc1)C(c1ccccc1)c1ccccc1)C1CCCCC1 (I: H-[NMeA][Chg]P[Dip] / II: H-[NMeA][Chg]P[Dip]; linker I:C-II:C via Hexamethylenediamine)

>  <TARGET_SYSTEM>
Fibroblast

>  <QUALITATIVE_LABEL>
-1

$$$$
>  <COMPOUND>
CC(C)(O)c1ccc2c(c1)ncn2-c1cccc(-c2ccccc2C#N)c1

>  <TARGET_SYSTEM>
Fibroblast

>  <QUALITATIVE_LABEL>
-1

$$$$
>  <COMPOUND>
CCN1C(=O)c2cc(C)ccc2N(C)c2ncccc21

>  <TARGET_SYSTEM>
Fibroblast

>  <QUALITATIVE_LABEL>
1

$$$$
>  <COMPOUND>
Cc1cc(OCc2nc3ccccc3s2)ccc1NC(=O)Nc1ccc(Cl)c(Cl)c1

>  <TARGET_SYSTEM>
Fibroblast

>  <QUALITATIVE_LABEL>
1

$$$$
>  <COMPOUND>
Clc1ccccc1C(c1ccccc1)(c1ccccc1)n1ccnc1

>  <TARGET_SYSTEM>
Fibroblast

>  <QUALITATIVE_LABEL>
1

$$$$
>  <COMPOUND>
O=C(Nc1ccc(N2CCC(C(=O)N3CCOCC3)CC2)cc1)c1cnc(Oc2ccccc2)nc1

>  <TARGET_SYSTEM>
Fibroblast

>  <QUALITATIVE_LABEL>
1

$$$$
>  <COMPOUND>
COc1ccccc1C(=O)Nc1cccc(NC(=O)c2cccc(C)c2)c1

>  <TARGET_SYSTEM>
Fibroblast

>  <QUALITATIVE_LABEL>
1

$$$$
>  <COMPOUND>
CCC(C)(C)CC[C@H](NC(=O)N1CCOCC1)C(=O)NC1(C#N)CCN(C)CC1

>  <TARGET_SYSTEM>
Fibroblast

>  <QUALITATIVE_LABEL>
1

$$$$
>  <COMPOUND>
CN(C1CCc2c(c3ccccc3n2CC(=O)O)C1)S(=O)(=O)c1ccc(F)cc1 (stereo not given)

>  <TARGET_SYSTEM>
Fibroblast

>  <QUALITATIVE_LABEL>
1

$$$$
>  <COMPOUND>
Cc1noc(C)c1-c1cnc2c(-c3ccc(C(=O)O)cc3)cn([C@@H](C)c3ccccn3)c2c1

>  <TARGET_SYSTEM>
Fibroblast

>  <QUALITATIVE_LABEL>
-1

$$$$
>  <COMPOUND>
COc1cc(N(C)c2ccnc3ccc(C(F)(F)F)cc23)cc(OC)c1OC

>  <TARGET_SYSTEM>
Fibroblast

>  <QUALITATIVE_LABEL>
1

$$$$
>  <COMPOUND>
Cc1[nH]nc(C(F)(F)F)c1Cc1sc2c(c1C(=O)N1C[C@](C)(O)CO1)c(=O)n(C)c(=O)n2C(C)C

>  <TARGET_SYSTEM>
Fibroblast

>  <QUALITATIVE_LABEL>
1

$$$$
>  <COMPOUND>
Cc1ccc(NC(=O)c2ccc(CN3CC[C@H](N(C)C)C3)c(C(F)(F)F)c2)cc1Nc1nccc(-c2cncnc2)n1

>  <TARGET_SYSTEM>
Fibroblast

>  <QUALITATIVE_LABEL>
-1

$$$$
>  <COMPOUND>
Cc1cc(-c2cnc(N)c3c(-c4ccc5scnc5c4)csc23)n(C)n1

>  <TARGET_SYSTEM>
Fibroblast

>  <QUALITATIVE_LABEL>
1

$$$$
>  <COMPOUND>
C[C@@H]1C[C@H](N)C[C@H](c2ccncc2NC(=O)c2ccc(F)c(-c3c(F)cccc3F)n2)C1

>  <TARGET_SYSTEM>
Fibroblast

>  <QUALITATIVE_LABEL>
-1

$$$$
>  <COMPOUND>
Cc1nn(-c2ccccc2)c(Nc2ccccc2C(=O)O)c1-c1cc2nccnc2c(F)c1F

>  <TARGET_SYSTEM>
Fibroblast

>  <QUALITATIVE_LABEL>
-1

$$$$
>  <COMPOUND>
COc1cc(CN(CCN)C(=O)N[C@@H](C)c2ccccc2)ccc1OCc1ccccc1.Cl

>  <TARGET_SYSTEM>
Fibroblast

>  <QUALITATIVE_LABEL>
-1

$$$$
>  <COMPOUND>
CC(C)NC(=O)[C@H]1CCC[C@H]1Nc1nc(Nc2ccc(CN(C)C)cc2)ncc1Br.Cl

>  <TARGET_SYSTEM>
Fibroblast

>  <QUALITATIVE_LABEL>
-1

$$$$
>  <COMPOUND>
N#Cc1ccc(C#CC[C@@H](C#N)NC(=O)[C@@H]2CCCCN2)cc1F

>  <TARGET_SYSTEM>
Fibroblast

>  <QUALITATIVE_LABEL>
1

$$$$
>  <COMPOUND>
CCc1ccc(N(CC(C)C)S(=O)(=O)c2ccc(OCC3CCOCC3)c(CO)c2)cc1

>  <TARGET_SYSTEM>
Fibroblast

>  <QUALITATIVE_LABEL>
-1

$$$$
>  <COMPOUND>
O=C(O)Cc1cc(I)c(Oc2ccc(O)c(I)c2)c(I)c1

>  <TARGET_SYSTEM>
Fibroblast

>  <QUALITATIVE_LABEL>
-1

$$$$
>  <COMPOUND>
CN1CCCN(C(=O)c2cccc(-c3ccc(/C=C4/C(=O)Nc5ccc(Cl)cc54)o3)c2)CC1

>  <TARGET_SYSTEM>
Fibroblast

>  <QUALITATIVE_LABEL>
-1

$$$$
>  <COMPOUND>
CC1CN(CC(=O)N2CC(C)(C)c3nc(CO)c(Cc4ccc(F)cc4)cc32)C(CN2CCOCC2C)CN1 (stereo not given)

>  <TARGET_SYSTEM>
Fibroblast

>  <QUALITATIVE_LABEL>
1

$$$$
>  <COMPOUND>
O=C1CCCc2[nH]c(-c3ccnc(NCC4CC4)c3)c(Nc3ccccc3)c21

>  <TARGET_SYSTEM>
Fibroblast

>  <QUALITATIVE_LABEL>
1

$$$$
>  <COMPOUND>
C[C@@H](CN1CC[C@@]2(C)c3cccc(O)c3C[C@@H]1C2(C)C)OCc1ccccc1.Cl

>  <TARGET_SYSTEM>
Fibroblast

>  <QUALITATIVE_LABEL>
1

$$$$
